Origin of values: patent US11345713B2

Study system: human TLR2 (Pam3CSK4, TLR1/2 agonist) in HEK-Blue hTLR2 cells (Homo sapiens, UniProt O60603)
Construct: host or cells: HEK-Blue hTLR2 (HEK-293)
Sequence (O60603 19-784 limits assumed): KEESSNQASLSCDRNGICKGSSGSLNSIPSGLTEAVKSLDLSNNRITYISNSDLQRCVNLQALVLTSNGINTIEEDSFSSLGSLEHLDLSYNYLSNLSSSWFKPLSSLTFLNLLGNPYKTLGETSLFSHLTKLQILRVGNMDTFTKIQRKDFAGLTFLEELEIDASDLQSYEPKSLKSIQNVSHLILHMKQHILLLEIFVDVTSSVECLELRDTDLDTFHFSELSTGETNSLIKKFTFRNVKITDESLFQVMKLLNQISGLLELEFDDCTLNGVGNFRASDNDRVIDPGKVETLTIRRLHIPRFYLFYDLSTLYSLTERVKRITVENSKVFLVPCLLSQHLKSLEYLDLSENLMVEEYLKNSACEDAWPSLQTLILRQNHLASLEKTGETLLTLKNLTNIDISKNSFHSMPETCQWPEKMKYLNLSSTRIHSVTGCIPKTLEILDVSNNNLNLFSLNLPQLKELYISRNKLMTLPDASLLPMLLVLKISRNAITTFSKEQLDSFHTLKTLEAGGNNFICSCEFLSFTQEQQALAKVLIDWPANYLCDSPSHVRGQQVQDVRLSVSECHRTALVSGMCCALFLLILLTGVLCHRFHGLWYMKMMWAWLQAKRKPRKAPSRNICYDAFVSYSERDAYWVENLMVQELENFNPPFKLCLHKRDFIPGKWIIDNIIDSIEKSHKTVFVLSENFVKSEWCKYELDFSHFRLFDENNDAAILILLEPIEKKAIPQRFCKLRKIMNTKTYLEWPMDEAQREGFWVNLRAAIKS
Assay details: HEK-Blue hTLR2 antagonism assay (SEAP reporter) with Pam3CSK4 as agonist
Type: cell-based
Measurement parameters: 2 h compound pre-incubation, approx. 3×EC50 Pam3CSK4, 18 h, SEAP OD 655 nm, background subtracted
Property: IC50 (µM)

A = O=Cc1cc(/C=C/c2ccc3c(c2)CCCO3)cc(F)c1O
B = COCCOc1ccc(/C=C/c2cc(C=O)c(O)c(OC)c2)cc1
Pick one, A or B : lowest reported IC50. Give the label of your selection.
A
(A: 1.3 µM, B: 4.6 µM)

a = O=Cc1cc(/C=C/c2ccc(N3CCCC3)cc2)cc(F)c1O [Example 49a]
b = COc1ccc(/C=C/c2cc(F)c(O)c(C=O)c2)cc1
Of a versus b , which is the one with smaller reported IC50? Your choice should be expressed through its label.
a
(a: 0.6 µM, b: 3.8 µM)
